Recorded Change in Mass (%) - ref, Desorption values for a group of compounds are listed next.
EXPERIMENT DESCRIPTION: Hygroscopicity measurements (DVS sorption/desorption profiles)
Format: physicochemical
CONDITION INFO: Target % P/P0 80.0; 25° C.
Answer with a number only, understood to be in %.

Cc1nc(-c2ccc(OCC(C)C)c(C#N)c2)sc1C(=O)O [Form G of U.S. Pat. No. 6,225,474, reference compound] | 2.420
Cc1nc(-c2ccc(OCC(C)C)c(C#N)c2)sc1C(=O)O [Form IX] | 1.583
Cc1nc(-c2ccc(OCC(C)C)c(C#N)c2)sc1C(=O)O [Form XI] | 2.503

Turning now to a further record.
Q: Please give the measured Change in Mass (%) - ref, Desorption for this compound: Cc1nc(-c2ccc(OCC(C)C)c(C#N)c2)sc1C(=O)O [Form V]
Result: 23.42
